Target: Human plasma kallikrein (Homo sapiens (Human), UniProt P03952)
Sequence (P03952 391-638): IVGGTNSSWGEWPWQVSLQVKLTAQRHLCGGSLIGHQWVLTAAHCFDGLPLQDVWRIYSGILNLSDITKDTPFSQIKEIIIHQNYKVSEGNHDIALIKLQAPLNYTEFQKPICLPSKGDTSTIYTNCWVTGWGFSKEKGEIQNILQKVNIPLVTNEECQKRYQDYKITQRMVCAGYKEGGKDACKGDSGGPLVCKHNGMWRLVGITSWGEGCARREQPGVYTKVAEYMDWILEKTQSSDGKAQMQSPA
Sequence (P03952 20-390 partner): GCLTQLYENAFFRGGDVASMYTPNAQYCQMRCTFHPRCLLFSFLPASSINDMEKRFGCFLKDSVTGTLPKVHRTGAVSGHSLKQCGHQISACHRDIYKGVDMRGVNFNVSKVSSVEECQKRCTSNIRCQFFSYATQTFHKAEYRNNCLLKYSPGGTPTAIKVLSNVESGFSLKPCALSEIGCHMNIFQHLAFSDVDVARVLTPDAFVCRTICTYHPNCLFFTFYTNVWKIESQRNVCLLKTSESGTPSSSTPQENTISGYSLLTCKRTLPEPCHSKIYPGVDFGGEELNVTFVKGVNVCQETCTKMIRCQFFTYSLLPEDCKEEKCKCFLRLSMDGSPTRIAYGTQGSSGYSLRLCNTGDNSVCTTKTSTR
Test: Kallikrein Assay
Type: biochemical
Conditions: purified Human plasma kallikrein 0.5 nM, substrate Acetyl-K-P-R-AFC; read-out: P. KLK IC50
Experimental: The effectiveness of a compound of the present invention as an inhibitor of Kallikrein can be determined using a relevant purified serine protease, and an appropriate synthetic substrate. The rate of hydrolysis of the chromogenic or fluorogenic substrate by the relevant serine protease was measured both in the absence and presence of compounds of the present invention. […] A decrease in the rate of fluorescence change in the presence of inhibitor is indicative of enzyme inhibition. […]
Recorded Endpoint: IC50 (nM)

A. O=C(O)c1ccc(NC(=O)[C@H](CC2CC2)c2ccc(-c3c(OCC4CC4)ccc(Cl)c3F)c[n+]2[O-])cc1 [Example 13]
B. C[C@]1(O)CC[C@@H](CC(C(=O)Nc2ccc(C(=O)O)cc2)c2ccc(-c3c(C(F)F)ccc(Cl)c3F)c[n+]2[O-])CC1 (single isomer, unassigned) [Example 45]
input: Look at A and B . Which one has the lower recorded IC50 number? To answer, give the label that identifies your chosen option.
output: B

a. O=C(O)c1ccc(NC(=O)C(CC2CC2)c2ccc(-c3cc(Cl)ccc3C(F)F)c[n+]2[O-])cc1 (single isomer, unassigned) [Example 29]
b. O=C(O)c1ccc(NC(=O)C(CC2CC2CF)c2ccc(-c3c(C(F)F)ccc(Cl)c3F)c[n+]2[O-])cc1 (single isomer, unassigned) [Example 95]
input: Form field 'greater IC50' accepts a or b ; which applies? To answer, give the label that identifies your chosen option.
output: a

P. O=C(O)c1ccc(NC(=O)[C@H](CC2CC2)c2ccc(-c3c(OC(F)F)ccc(Cl)c3F)c[n+]2[O-])cc1 (single isomer, unassigned) [Example 2]
Q. O=C(O)c1ccc(NC(=O)C(CC2CC2C(F)(F)F)c2ccc(-c3c(OC(F)F)ccc(Cl)c3F)c[n+]2[O-])cc1 (single isomer, unassigned) [Example 107]
input: Look at P and Q . Which one has the lower recorded IC50 number? To answer, give the label that identifies your chosen option.
output: Q
(Q: 24.2 nM, P: 79 nM)

* * *

Target: Human plasma kallikrein (Homo sapiens (Human))
Experiment: Kallikrein Assay
Details: purified Human plasma kallikrein 0.5 nM, substrate Acetyl-K-P-R-AFC; read-out: P. KLK IC50
Recorded Endpoint: IC50 (nM)

1. O=C(O)c1ccc(NC(=O)C(CC2CC2(F)F)c2ccc(-c3c(C(F)F)ccc(Cl)c3F)c[n+]2[O-])cc1 (single isomer, unassigned) [Example 76] = 14.5

A. C[C@]1(O)CC[C@H](CC(C(=O)Nc2ccc(C(=O)O)cc2)c2ccc(-c3c(OC(F)F)ccc(Cl)c3F)c[n+]2[O-])CC1 (single isomer, unassigned)
B. COc1cc(C(CC2CC2)C(=O)Nc2ccc(C(=O)O)cc2)[n+]([O-])cc1-c1c(OC(F)F)ccc(Cl)c1F (single isomer, unassigned) [Example 71]
C. CCOc1ccc(Cl)c(F)c1-c1ccc(C(CC2CC2)C(=O)Nc2ccc(C(=O)O)cc2)[n+]([O-])c1 (single isomer, unassigned)
D. O=C(O)c1ccc(NC(=O)C(CC2CC2CF)c2ccc(-c3c(C(F)F)ccc(Cl)c3F)c[n+]2[O-])cc1 (single isomer, unassigned) [Example 94]
input: Rank descending by IC50. Provide your answer as the labels ordered per the instruction.
output: C, A, B, D
(C: 857 nM, A: 20 nM, B: 11 nM, D: 6 nM)
